Where do these numbers come from? They come from patent US10174020B2.

Please provide measured pEC50 for the entries that follow.
Tested on: human plasma
Test: In vitro assay of the blood coagulation function of human plasma (APTT)
Assay type: biochemical
Conditions: concentration required to double the plasma APTT, read-out: aPTT EC2×
Scale explanation: pEC50 corresponds to minus log10 of a concentration expressed in moles per litre.

For O=C(O)c1cc2cc(NC(=O)C3CCc4nc(-c5cc(Cl)ccc5-n5cnnn5)cc(=O)n43)ccc2[nH]1 (stereo not shown) on human plasma, measured pEC50 was 5.02

For O=C(O)c1cc2cc(NC(=O)C(Cc3ccccc3)n3ccc(-c4cc(Cl)ccc4-n4cnnn4)cc3=O)ccc2[nH]1 (stereo not shown) on human plasma, measured pEC50 was 5.19

For O=C(O)c1cc2cc(NC(=O)C3CCc4cc(-c5cc(Cl)ccc5-n5cnnn5)cc(=O)n43)ccc2[nH]1 (stereo not shown) on human plasma, measured pEC50 was 5.21

For O=C(O)c1cc2cc(NC(=O)[C@@H]3CCc4cc(-c5cc(Cl)ccc5-n5cnnn5)cc(=O)n43)ccc2[nH]1 (single isomer, unassigned) on human plasma, measured pEC50 was 5.64

---

Please provide measured Ki for the entries that follow.
Target: human blood-coagulation factor XIa (Homo sapiens (Human), UniProt P03951)
Sequence (P03951 388-625): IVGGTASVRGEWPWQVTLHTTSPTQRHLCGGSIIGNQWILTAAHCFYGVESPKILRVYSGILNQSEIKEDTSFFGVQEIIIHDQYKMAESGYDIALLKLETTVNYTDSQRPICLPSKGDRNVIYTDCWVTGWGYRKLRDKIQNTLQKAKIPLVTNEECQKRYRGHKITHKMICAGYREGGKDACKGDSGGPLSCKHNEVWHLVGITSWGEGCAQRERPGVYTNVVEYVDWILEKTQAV
Sequence (P03951 19-387 partner): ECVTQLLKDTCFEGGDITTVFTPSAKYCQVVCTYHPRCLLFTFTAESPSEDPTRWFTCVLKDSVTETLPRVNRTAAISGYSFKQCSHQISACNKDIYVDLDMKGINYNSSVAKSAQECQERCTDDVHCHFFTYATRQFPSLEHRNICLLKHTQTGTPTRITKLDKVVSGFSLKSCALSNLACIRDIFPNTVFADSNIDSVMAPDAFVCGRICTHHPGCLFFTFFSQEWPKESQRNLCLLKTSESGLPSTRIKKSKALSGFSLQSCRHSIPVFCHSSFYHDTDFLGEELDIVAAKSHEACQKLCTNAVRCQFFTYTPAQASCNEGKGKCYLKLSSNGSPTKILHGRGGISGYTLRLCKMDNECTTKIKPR
Assay: In vitro inhibitory effect on the enzymatic activity of blood-coagulation factor XIa (S2366 substrate, absorbance at 405 nm)
Conditions: calculated from IC50 at substrate S2366 200 μM, Km=0.2 mM; IC50=Ki(1+[S]/Km)
Enter your answer as a number in nM; do not include the unit.

Sample O=C(O)c1cc2cc(NC(=O)C3CCc4cc(-c5cc(Cl)ccc5-n5cnnn5)cc(=O)n43)ccc2[nH]1 (stereo not drawn) [Compound 3] ; Ki observed: 9

Sample O=C(O)c1ccc(NC(=O)C2CCc3nc(-c4cc(Cl)ccc4-n4cnnn4)cc(=O)n32)cc1 (stereo not drawn) [Compound 1] ; Ki observed: 249

Sample O=C(O)c1cc2cc(NC(=O)[C@H]3CCc4cc(-c5cc(Cl)ccc5-n5cnnn5)cc(=O)n43)ccc2[nH]1 (single isomer, unassigned) [Compound 8-2] ; Ki observed: 1030

Sample O=C(O)c1cc2cc(NC(=O)C3CCc4nc(-c5cc(Cl)ccc5-n5cnnn5)cc(=O)n43)ccc2[nH]1 (stereo not drawn) [Compound 4] ; Ki observed: 17

Sample O=C(Cn1ccc(-c2cc(Cl)ccc2-n2cnnn2)cc1=O)Nc1ccc(C(=O)O)cc1 [Compound 5] ; Ki observed: 146

Sample O=C(Cn1ccc(-c2cc(Cl)ccc2-n2cnnn2)cc1=O)Nc1ccc2[nH]c(C(=O)O)cc2c1 [Compound 6] ; Ki observed: 14

Sample O=C(O)c1cc2cc(NC(=O)C(Cc3ccccc3)n3ccc(-c4cc(Cl)ccc4-n4cnnn4)cc3=O)ccc2[nH]1 (stereo not drawn) [Compound 9] ; Ki observed: 4

Sample O=C(O)c1ccc(NC(=O)C2CCc3cc(-c4cc(Cl)ccc4-n4cnnn4)cc(=O)n32)cc1 (stereo not drawn) [Compound 2] ; Ki observed: 68

Sample O=C(O)c1cc2cc(NC(=O)[C@@H]3CCc4cc(-c5cc(Cl)ccc5-n5cnnn5)cc(=O)n43)ccc2[nH]1 (single isomer, unassigned) [Compound 8-1] ; Ki observed: 2
